# test-target: Cytochrome P450 3A4 (Homo sapiens)
# assay-info: Cytochrome panel assay with activity outcomes
# condition-details: recombinant CYP, pro-luciferin dealkylation, luminescence, p450-cyp3a4; series mostly up to 57.1 µM
The whole screen tested about 16,000 compounds, of which about 5,100 (32%) were called active. Not shown: some 25% with an inconclusive outcome. Calls follow the shape of the dose curve; as a rule, active = well fitted curve in the direction sought with a large enough effect; inconclusive = small, poorly fitted or top-dose-only effect, or effect the other way; inactive = no such curve, though single readings can be large or run the other way. The list shows a part of the results.
Outcome codes: 1 (active), -1 (inactive)

compound	test-target	class-label
O=[N+]([O-])c1ccccc1/C=N/n1c(COc2ccccc2)n[nH]c1=S	Cytochrome P450 3A4 (Homo sapiens)	1
CCOc1ccc(NC(=O)C(=O)NCC2CCCN2CC)cc1 (centres undefined)	Cytochrome P450 3A4 (Homo sapiens)	-1
CN1CCN(c2ncncc2-c2ccoc2)CC1	Cytochrome P450 3A4 (Homo sapiens)	1
COc1ccc(NC(=O)N(C2CCCCC2)C(C)c2cccnc2)c(OC)c1 (centres undefined)	Cytochrome P450 3A4 (Homo sapiens)	1
CNc1nc(-c2ccccc2C(F)(F)F)nc2ccccc12	Cytochrome P450 3A4 (Homo sapiens)	-1
COC(=O)[C@@]1(Cc2ccccc2)[C@H]2c3cc(C(=O)N4CCCC4)n(Cc4ccc(O)c(OC)c4)c3C[C@H]2CN1C(=O)c1ccccc1	Cytochrome P450 3A4 (Homo sapiens)	1
CN(C)c1ccc(-c2cncnc2Nc2ccccc2)cc1	Cytochrome P450 3A4 (Homo sapiens)	1
COc1ccc2[nH]cc(CCNc3nc(-c4cccnc4)nc4ccccc34)c2c1	Cytochrome P450 3A4 (Homo sapiens)	1
Oc1cc2c(cc1O)CN(C(=S)NCCc1ccc(Cl)cc1)CCC2	Cytochrome P450 3A4 (Homo sapiens)	1
CCc1cc2cc(C)c(C)cc2nc1SCC(=O)NNC(=O)c1ccco1	Cytochrome P450 3A4 (Homo sapiens)	1
Cc1ccc(/C=N/n2c(COc3ccccc3)n[nH]c2=S)s1	Cytochrome P450 3A4 (Homo sapiens)	-1
CCN(CC(=O)Nc1ccc(N2CCOCC2)cc1)Cc1nc2ccccc2c(=O)[nH]1	Cytochrome P450 3A4 (Homo sapiens)	-1
CN[C@H](CC(=O)O)C(=O)O	Cytochrome P450 3A4 (Homo sapiens)	-1
COc1ccc(C(C(=O)NC2CCCCC2)N(C(=O)Cc2c[nH]c3ccccc23)c2ccc(NC(C)=O)cc2)cc1OC (centres undefined)	Cytochrome P450 3A4 (Homo sapiens)	1
Cc1nc2ccccn2c1C(=O)N/N=C/c1ccccc1[N+](=O)[O-]	Cytochrome P450 3A4 (Homo sapiens)	1
c1ccc(SC(Sc2ccccc2)c2ccc3c(c2)OCO3)cc1	Cytochrome P450 3A4 (Homo sapiens)	1
O=C(Nc1ccn(Cc2ccccc2F)n1)c1ccc(COc2cc(Cl)ccc2Cl)o1	Cytochrome P450 3A4 (Homo sapiens)	1
O=C1N=C(N2CCOCC2)S/C1=C\C=C/c1ccccc1	Cytochrome P450 3A4 (Homo sapiens)	-1
O=C(O)CCC(=O)N1CCc2cc(S(=O)(=O)N3CCCCC3)ccc21	Cytochrome P450 3A4 (Homo sapiens)	-1
COc1ccc2[nH]cc(CCNc3nc(-c4ccoc4)nc4ccccc34)c2c1	Cytochrome P450 3A4 (Homo sapiens)	1
Cc1ccc(-n2nnnc2SCC(=O)NNC(=O)c2ccco2)c(C)c1	Cytochrome P450 3A4 (Homo sapiens)	1
O=C(O)CCC(=O)N1CCc2cc(S(=O)(=O)NCc3cccs3)ccc21	Cytochrome P450 3A4 (Homo sapiens)	-1
CC(SCc1cn2cc(Cl)ccc2n1)C(=O)O (centres undefined)	Cytochrome P450 3A4 (Homo sapiens)	-1
CCCCN(C(=O)Nc1ccc(OCC)cc1)C1CCN(C(C)=O)CC1	Cytochrome P450 3A4 (Homo sapiens)	-1
CCC(=O)N1CCc2cc(S(=O)(=O)NC(C(=O)NCc3ccc(F)cc3)C(C)C)ccc21 (centres undefined)	Cytochrome P450 3A4 (Homo sapiens)	1
O=[N+]([O-])c1ccc(/C=N/N/C(=N/c2ccccn2)c2ccccn2)cc1	Cytochrome P450 3A4 (Homo sapiens)	-1
CCCc1cc2c(n1Cc1cc(F)cc(F)c1)C(C)C1CN(C(=O)c3ccccc3)C(C)(C(=O)OC)C21 (centres undefined)	Cytochrome P450 3A4 (Homo sapiens)	1
COc1ccc2[nH]cc(CCNc3ncncc3-c3ccc(N(C)C)cc3)c2c1	Cytochrome P450 3A4 (Homo sapiens)	1
CC(=O)c1ccc(-n2nnnc2SCC(=O)Nc2cccc(NC(=O)c3ccco3)c2)cc1	Cytochrome P450 3A4 (Homo sapiens)	1
COc1ccc(NC(=O)C2CC(=O)NC3=C2C(=O)CC(C)(C)C3)cc1 (centres undefined)	Cytochrome P450 3A4 (Homo sapiens)	-1
Clc1ccccc1-c1nc(Nc2ccncc2)c2ccccc2n1	Cytochrome P450 3A4 (Homo sapiens)	1
CC(C)CNC(=O)c1ccc(COc2ccc(Cl)cc2Cl)o1	Cytochrome P450 3A4 (Homo sapiens)	1
CSc1nc(N)nc(SCC(=O)Nc2ccc(Cl)cc2)c1C#N	Cytochrome P450 3A4 (Homo sapiens)	-1
O=C(CSc1n[nH]c(-c2ccccc2O)n1)N1CCCc2ccccc21	Cytochrome P450 3A4 (Homo sapiens)	1
COc1cccc(-c2nc(NCCc3c[nH]c4ccc(OC)cc34)c3ccccc3n2)c1	Cytochrome P450 3A4 (Homo sapiens)	1
C=CCNc1nc(-c2ccc(Cl)cc2)cs1	Cytochrome P450 3A4 (Homo sapiens)	1
CSc1nsc(/C=C/Nc2ccc(Cl)cc2)c1C#N	Cytochrome P450 3A4 (Homo sapiens)	1
O=C(CSc1nnc(CNc2ccc(F)cc2)o1)N1c2ccccc2Sc2ccccc21	Cytochrome P450 3A4 (Homo sapiens)	1
Cc1ccn2cc(CSc3ccccc3N)nc2c1	Cytochrome P450 3A4 (Homo sapiens)	1
CC[N+](CC)(CC)CCOc1cccc(OCC[N+](CC)(CC)CC)c1OCC[N+](CC)(CC)CC	Cytochrome P450 3A4 (Homo sapiens)	-1
CCN(CC)C(=O)CSc1nnc(C2CCCCC2)o1	Cytochrome P450 3A4 (Homo sapiens)	-1
CNc1nc(-c2ccccc2Cl)nc2ccccc12	Cytochrome P450 3A4 (Homo sapiens)	1
O=C(Nc1cccnc1)c1ccc(COc2cc(Cl)ccc2Cl)o1	Cytochrome P450 3A4 (Homo sapiens)	1
Cc1cccc(NC(=O)CSc2nc(COc3ccccc3)nc3ccccc23)c1C	Cytochrome P450 3A4 (Homo sapiens)	1
